Source listed as patent US20200123147A1.

ASSAY_SYSTEM: PRMT5:MEP50 protein complex (Homo sapiens, UniProt O14744)
Construct: FLAG (N)
Sequence (O14744 whole entry, species assumed): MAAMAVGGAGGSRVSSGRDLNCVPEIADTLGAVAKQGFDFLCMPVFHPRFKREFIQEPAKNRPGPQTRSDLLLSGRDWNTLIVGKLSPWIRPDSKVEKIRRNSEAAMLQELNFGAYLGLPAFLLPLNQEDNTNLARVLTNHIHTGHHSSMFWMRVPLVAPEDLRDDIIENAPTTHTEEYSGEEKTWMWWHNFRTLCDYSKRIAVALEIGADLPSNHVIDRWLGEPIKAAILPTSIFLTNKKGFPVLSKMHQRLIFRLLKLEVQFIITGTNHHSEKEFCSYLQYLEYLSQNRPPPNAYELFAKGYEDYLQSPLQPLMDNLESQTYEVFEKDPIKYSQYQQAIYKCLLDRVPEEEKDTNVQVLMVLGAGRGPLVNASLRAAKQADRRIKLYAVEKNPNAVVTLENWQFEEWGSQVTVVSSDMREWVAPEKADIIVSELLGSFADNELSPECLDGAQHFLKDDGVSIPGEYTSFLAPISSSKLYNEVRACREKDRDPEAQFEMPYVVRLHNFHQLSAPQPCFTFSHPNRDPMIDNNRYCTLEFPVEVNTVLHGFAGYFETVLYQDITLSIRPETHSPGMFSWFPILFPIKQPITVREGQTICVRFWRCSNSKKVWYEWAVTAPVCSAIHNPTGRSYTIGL
Sequence (Q9BQA1 whole entry partner, species assumed): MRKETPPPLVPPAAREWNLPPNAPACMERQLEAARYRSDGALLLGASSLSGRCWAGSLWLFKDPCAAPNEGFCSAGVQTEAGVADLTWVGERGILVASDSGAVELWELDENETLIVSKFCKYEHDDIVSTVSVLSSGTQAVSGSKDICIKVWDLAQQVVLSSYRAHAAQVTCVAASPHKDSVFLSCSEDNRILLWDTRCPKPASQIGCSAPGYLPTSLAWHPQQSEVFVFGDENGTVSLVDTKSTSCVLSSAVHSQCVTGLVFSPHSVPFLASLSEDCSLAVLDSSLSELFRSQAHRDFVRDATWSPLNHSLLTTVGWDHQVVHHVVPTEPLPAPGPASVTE
TEST_DESCRIPTION: In vitro assay 1: PRMT5 SPA assay ("EAA")
CONDITION_DESCRIPTION: scintillation proximity assay, methylation of biotinylated H4(1-24) peptide, 3H-SAM, 60 min at 22° C.
pIC50: −log10 of the molar value.
PROPERTY_LABEL: pIC50

>  <STRUCTURE_SMILES>
Cn1nc(NC(=O)c2csc(Nc3ccccc3)n2)cc1C(F)(F)F

>  <PROPERTY_LABEL>
pIC50

>  <RECORDED_NUMBER>
6.62

$$$$
>  <STRUCTURE_SMILES>
Cn1ccc(NC(=O)c2csc(Nc3ccccc3)n2)n1

>  <PROPERTY_LABEL>
pIC50

>  <RECORDED_NUMBER>
5.79

$$$$
>  <STRUCTURE_SMILES>
O=C(Nc1cnn(C2COC2)c1)c1csc(Nc2ccc(Cl)cc2)n1

>  <PROPERTY_LABEL>
pIC50

>  <RECORDED_NUMBER>
4.82

$$$$
>  <STRUCTURE_SMILES>
CC(C)(C)c1cc(NC(=O)c2csc(NCc3ccco3)n2)no1

>  <PROPERTY_LABEL>
pIC50

>  <RECORDED_NUMBER>
6.22

$$$$
>  <STRUCTURE_SMILES>
CC(C)(C)c1cc(NC(=O)c2csc(NC3CC3)n2)no1

>  <PROPERTY_LABEL>
pIC50

>  <RECORDED_NUMBER>
4.83

$$$$
>  <STRUCTURE_SMILES>
CC(C)(C)c1cc(NC(=O)c2csc(Nc3ccc(C#N)cc3)n2)no1

>  <PROPERTY_LABEL>
pIC50

>  <RECORDED_NUMBER>
5.60

$$$$
>  <STRUCTURE_SMILES>
CC(C)(C)c1cc(NC(=O)c2csc(Nc3ccccc3)n2)n[nH]1

>  <PROPERTY_LABEL>
pIC50

>  <RECORDED_NUMBER>
6.36

$$$$
>  <STRUCTURE_SMILES>
O=C(Nc1ccn(CCO)n1)c1csc(Nc2ccccc2)n1

>  <PROPERTY_LABEL>
pIC50

>  <RECORDED_NUMBER>
5.04

$$$$
>  <STRUCTURE_SMILES>
Cc1cc(F)ccc1Nc1nc(C(=O)Nc2cc(C(C)(C)C)on2)cs1

>  <PROPERTY_LABEL>
pIC50

>  <RECORDED_NUMBER>
5.17

$$$$
>  <STRUCTURE_SMILES>
CC(C)(C)c1cc(NC(=O)c2csc(Nc3ccccc3)n2)no1

>  <PROPERTY_LABEL>
pIC50

>  <RECORDED_NUMBER>
6.75

$$$$
>  <STRUCTURE_SMILES>
CC(C)(C)c1cc(NC(=O)c2csc(NCCc3ccccc3)n2)no1

>  <PROPERTY_LABEL>
pIC50

>  <RECORDED_NUMBER>
6.92

$$$$
>  <STRUCTURE_SMILES>
CC(C)(C)c1cc(NC(=O)c2csc(Nc3ccc(Cl)cc3)n2)n[nH]1

>  <PROPERTY_LABEL>
pIC50

>  <RECORDED_NUMBER>
6.53

$$$$
>  <STRUCTURE_SMILES>
CCN(CC)CCOc1cc(NC(=O)c2csc(Nc3ccccc3)n2)ccc1-c1ccc(C)cc1

>  <PROPERTY_LABEL>
pIC50

>  <RECORDED_NUMBER>
6.03

$$$$
>  <STRUCTURE_SMILES>
CC(C)(C)c1cc(NC(=O)c2csc(Nc3ccc(Cl)cc3)n2)no1

>  <PROPERTY_LABEL>
pIC50

>  <RECORDED_NUMBER>
6.98

$$$$

---

System: PRMT5 (histone H4 Arg3 SDMA levels in MDA-MB-468 cells)
TEST_DESCRIPTION: In vitro assay 2: quantification of SDMA (symmetric dimethylarginine) expression levels (H4 Arg3) in cancer cells, High-Content Analysis
Format: cell-based
CONDITION_DESCRIPTION: Homo sapiens, 72 h, SDMA histone H4 (Arg3) average signal intensity per cell

>  <STRUCTURE_SMILES>
CCn1ccc(NC(=O)c2csc(Nc3ccc(Cl)cc3)n2)n1

>  <MEASURE_UNIT>
µM

>  <BOUND_SIGN>
≥

>  <IC50>
30

$$$$
>  <STRUCTURE_SMILES>
O=C(Nc1nc2ccccc2s1)c1csc(Nc2ccc(Cl)cc2)n1

>  <MEASURE_UNIT>
µM

>  <BOUND_SIGN>
≥

>  <IC50>
30

$$$$
>  <STRUCTURE_SMILES>
Cc1ccc(Nc2nc(C(=O)Nc3cc(C(C)(C)C)on3)cs2)cc1Cl

>  <MEASURE_UNIT>
µM

>  <BOUND_SIGN>
≥

>  <IC50>
30

$$$$
>  <STRUCTURE_SMILES>
CC(C)(C)c1cc(NC(=O)c2csc(Nc3ccc(Cl)c(Cl)c3)n2)no1

>  <MEASURE_UNIT>
µM

>  <BOUND_SIGN>
=

>  <IC50>
26.7

$$$$
>  <STRUCTURE_SMILES>
CC(C)(C)c1cc(NC(=O)c2csc(Nc3ccccn3)n2)no1

>  <MEASURE_UNIT>
µM

>  <BOUND_SIGN>
=

>  <IC50>
2.45

$$$$
>  <STRUCTURE_SMILES>
O=C(Nc1cc(C2CC2)n[nH]1)c1csc(Nc2ccc(Cl)cc2)n1

>  <MEASURE_UNIT>
µM

>  <BOUND_SIGN>
≥

>  <IC50>
30

$$$$
>  <STRUCTURE_SMILES>
O=C(Nc1ccon1)c1csc(Nc2ccc(Cl)cc2)n1

>  <MEASURE_UNIT>
µM

>  <BOUND_SIGN>
≥

>  <IC50>
30

$$$$
>  <STRUCTURE_SMILES>
Cn1nc(NC(=O)c2csc(Nc3ccccc3)n2)cc1C(F)(F)F

>  <MEASURE_UNIT>
µM

>  <BOUND_SIGN>
=

>  <IC50>
27.9

$$$$
>  <STRUCTURE_SMILES>
CC(C)(C)c1cc(NC(=O)c2csc(Nc3ccccc3)n2)no1

>  <MEASURE_UNIT>
µM

>  <BOUND_SIGN>
=

>  <IC50>
25.4

$$$$
>  <STRUCTURE_SMILES>
O=C(Nc1cc(-c2ccccc2)[nH]n1)c1csc(Nc2ccc(Cl)cc2)n1

>  <MEASURE_UNIT>
µM

>  <BOUND_SIGN>
≥

>  <IC50>
30

$$$$
>  <STRUCTURE_SMILES>
O=C(NCCCCN1CCc2ccccc2C1)c1csc(Nc2ccc(Cl)cc2)n1

>  <MEASURE_UNIT>
µM

>  <BOUND_SIGN>
=

>  <IC50>
10

$$$$
>  <STRUCTURE_SMILES>
CC(C)(C)c1cc(NC(=O)c2csc(Nc3ccc(F)cc3)n2)no1

>  <MEASURE_UNIT>
µM

>  <BOUND_SIGN>
=

>  <IC50>
17.6

$$$$
>  <STRUCTURE_SMILES>
O=C(Nc1cc(C2CC2)n[nH]1)c1csc(Nc2ccccc2)n1

>  <MEASURE_UNIT>
µM

>  <BOUND_SIGN>
=

>  <IC50>
18.6

$$$$
>  <STRUCTURE_SMILES>
Cn1ccc(NC(=O)c2csc(Nc3ccccc3)n2)n1

>  <MEASURE_UNIT>
µM

>  <BOUND_SIGN>
=

>  <IC50>
23.2

$$$$
>  <STRUCTURE_SMILES>
Cc1cc(NC(=O)c2csc(Nc3ccc(Cl)cc3)n2)no1

>  <MEASURE_UNIT>
µM

>  <BOUND_SIGN>
≥

>  <IC50>
30

$$$$
>  <STRUCTURE_SMILES>
CC(C)(C)c1cc(NC(=O)c2csc(Nc3ccc(Cl)cc3)n2)n[nH]1

>  <MEASURE_UNIT>
µM

>  <BOUND_SIGN>
=

>  <IC50>
22.1

$$$$
>  <STRUCTURE_SMILES>
CCN(CC)CCOc1cc(NC(=O)c2csc(Nc3ccccc3)n2)ccc1-c1ccc(C)cc1

>  <MEASURE_UNIT>
µM

>  <BOUND_SIGN>
=

>  <IC50>
23.4

$$$$
>  <STRUCTURE_SMILES>
CC(C)(C)c1cc(NC(=O)c2csc(Nc3ccc(Cl)cc3)n2)no1

>  <MEASURE_UNIT>
µM

>  <BOUND_SIGN>
=

>  <IC50>
20.8

$$$$
>  <STRUCTURE_SMILES>
CC(C)(C)c1cc(NC(=O)c2csc(Nc3ccc([N+](=O)[O-])cc3)n2)no1

>  <MEASURE_UNIT>
µM

>  <BOUND_SIGN>
=

>  <IC50>
26.1

$$$$
